Sourced from BigSolDB 2.1

details: in acetylacetone, 293.15 K
REPORTED PROPERTY: solubility (mole fraction)
Number, no unit, nothing else.

Task item: Which solubility (mole fraction) value belongs to CNC(=O)c1cc(Oc2ccc(N)cc2)ccn1 ?
Reply: 0.0256

###

conditions: in water, 293.15 K
REPORTED PROPERTY: solubility (mole fraction)
Number, no unit, nothing else.

Task item: solubility (mole fraction) for CNC(=O)c1cc(Oc2ccc(N)cc2)ccn1 ?
Reply: 0.000438

###

details: in acetonitrile, 303.15 K
REPORTED PROPERTY: solubility (mole fraction)
Write no unit; give the number alone.

Task item: Request the reported solubility (mole fraction) associated with CNC(=O)c1cc(Oc2ccc(N)cc2)ccn1
Reply: 0.0737

###

details: in dichloromethane, 278.15 K
REPORTED PROPERTY: solubility (mole fraction)
Field format: numeric only.

Task item: Data request, read-out solubility (mole fraction), for CNC(=O)c1cc(Oc2ccc(N)cc2)ccn1
Reply: 0.00511

###

conditions: in acetonitrile, 318.15 K
REPORTED PROPERTY: solubility (mole fraction)
Form field (numeric): enter value without unit.

Task item: Find the recorded solubility (mole fraction) belonging to CNC(=O)c1cc(Oc2ccc(N)cc2)ccn1 and report it.
Reply: 0.134

###

conditions: in ethyl acetate, 278.15 K
REPORTED PROPERTY: solubility (mole fraction)
Answer with the value's number alone.

Task item: Sample CNC(=O)c1cc(Oc2ccc(N)cc2)ccn1 — what was its solubility (mole fraction)?
Reply: 0.0568

###

conditions: in THF, 318.15 K
REPORTED PROPERTY: solubility (mole fraction)
Respond with the number and no other words.

Task item: If you can, please state the reported solubility (mole fraction) value of CNC(=O)c1cc(Oc2ccc(N)cc2)ccn1 .
Reply: 0.194

###

settings: in water, 303.15 K
REPORTED PROPERTY: solubility (mole fraction)
Output: the number by itself.

Task item: // lookup solubility (mole fraction) for CNC(=O)c1cc(Oc2ccc(N)cc2)ccn1
Reply: 0.000598

###

conditions: in n-propanol, 298.15 K
REPORTED PROPERTY: solubility (mole fraction)

Task item: Item under review: CNC(=O)c1cc(Oc2ccc(N)cc2)ccn1 . Reported solubility (mole fraction)?
Reply: 0.0145

###

conditions: in THF, 278.15 K
REPORTED PROPERTY: solubility (mole fraction)
Give the figure by itself; no unit, no explanation.

Task item: For the molecule shown here, CNC(=O)c1cc(Oc2ccc(N)cc2)ccn1 , give the reported solubility (mole fraction).
Reply: 0.0919

###

details: in ethyl acetate, 323.15 K
REPORTED PROPERTY: solubility (mole fraction)
Returns: the value as a bare number; no unit string appended.

Task item: What solubility (mole fraction) value was documented for this compound, CNC(=O)c1cc(Oc2ccc(N)cc2)ccn1 ?
Reply: 0.242

###

settings: in n-butanol, 288.15 K
REPORTED PROPERTY: solubility (mole fraction)
Output: the number by itself.

Task item: Item CNC(=O)c1cc(Oc2ccc(N)cc2)ccn1 has what recorded solubility (mole fraction)?
Reply: 0.00592

###

settings: in n-butanol, 308.15 K
REPORTED PROPERTY: solubility (mole fraction)
Respond numerically, and do not add a unit to the figure.

Task item: Sample CNC(=O)c1cc(Oc2ccc(N)cc2)ccn1 — what was its solubility (mole fraction)?
Reply: 0.0174
